The reported measurements were obtained from patent US5977063A.

Tested on: Staphylococcus aureus 446
Experiment: MIC, standard broth micro-dilution assay, SA 446
Format: cell-based
Parameters: unit not given here
Please use 1 (yes) whenever Minimal Inhibitory Concentration (MIC) SA 446 is not below 8, and 0 (no) whenever it is.

COMPOUND	CAT
C[C@@H]1O[C@@H](O[C@@H]2c3ccc(c(Cl)c3)Oc3cc4cc(c3O[C@@H]3O[C@H](CO)[C@@H](O)[C@H](O)[C@H]3O[C@H]3C[C@](C)(NCc5ccc(-c6ccccc6)cc5)[C@@H](O)[C@H](C)O3)Oc3ccc(cc3Cl)[C@@H](O)[C@@H](NCc3ccc(O)cc3)C(=O)N[C@@H](CC(N)=O)C(=O)N[C@H]4C(=O)N[C@H]3C(=O)N[C@@H]2C(=O)N[C@H](C(=O)O)c2cc(O)cc(O)c2-c2cc3ccc2O)C[C@](C)(N)[C@H]1O [Example 17]	0 (no)
C[C@@H]1O[C@@H](O[C@H]2[C@H](Oc3c4cc5cc3Oc3ccc(cc3Cl)[C@@H](O[C@H]3C[C@](C)(N)[C@@H](O)[C@H](C)O3)[C@@H]3NC(=O)[C@H](NC(=O)[C@@H]5NC(=O)[C@H](CC(N)=O)NC(=O)[C@H](NCCCCCCc5ccccc5)[C@H](O)c5ccc(c(Cl)c5)O4)c4ccc(O)c(c4)-c4c(O)cc(O)cc4[C@@H](C(=O)O)NC3=O)O[C@H](CO)[C@@H](O)[C@@H]2O)C[C@](C)(N)[C@H]1O [Example 14, N^1 -(6-PHENYL-n-HEXYL)DESLEUCYL-A82846B]	1 (yes)
CCCCCCN[C@H]1C(=O)N[C@@H](CC(N)=O)C(=O)N[C@H]2C(=O)N[C@H]3C(=O)N[C@H](C(=O)N[C@H](C(=O)O)c4cc(O)cc(O)c4-c4cc3ccc4O)[C@H](O[C@H]3C[C@](C)(N)[C@@H](O)[C@H](C)O3)c3ccc(c(Cl)c3)Oc3cc2cc(c3O[C@@H]2O[C@H](CO)[C@@H](O)[C@H](O)[C@H]2O[C@H]2C[C@](C)(N)[C@@H](O)[C@H](C)O2)Oc2ccc(cc2Cl)[C@H]1O [Example 10, N^1 -n-HEXYLDESLEUCYL-A82846B]	1 (yes)

Inquiry: Please indicate if the recorded Minimal Inhibitory Concentration (MIC) SA 446 for C[C@@H]1O[C@@H](O[C@@H]2c3ccc(c(Cl)c3)Oc3cc4cc(c3O[C@@H]3O[C@H](CO)[C@@H](O)[C@H](O)[C@H]3O[C@H]3C[C@](C)(NCc5ccc(-c6ccccc6)cc5)[C@@H](O)[C@H](C)O3)Oc3ccc(cc3Cl)[C@@H](O)[C@@H](NCCCCCCc3ccccc3)C(=O)N[C@@H](CC(N)=O)C(=O)N[C@H]4C(=O)N[C@H]3C(=O)N[C@@H]2C(=O)N[C@H](C(=O)O)c2cc(O)cc(O)c2-c2cc3ccc2O)C[C@](C)(N)[C@H]1O [Example 20] meets or exceeds 8.
Reply text: 0 (no)
